# STUDY TARGET: recombinant human CSE (Homo sapiens, UniProt P32929)
# Sequence (P32929 whole entry): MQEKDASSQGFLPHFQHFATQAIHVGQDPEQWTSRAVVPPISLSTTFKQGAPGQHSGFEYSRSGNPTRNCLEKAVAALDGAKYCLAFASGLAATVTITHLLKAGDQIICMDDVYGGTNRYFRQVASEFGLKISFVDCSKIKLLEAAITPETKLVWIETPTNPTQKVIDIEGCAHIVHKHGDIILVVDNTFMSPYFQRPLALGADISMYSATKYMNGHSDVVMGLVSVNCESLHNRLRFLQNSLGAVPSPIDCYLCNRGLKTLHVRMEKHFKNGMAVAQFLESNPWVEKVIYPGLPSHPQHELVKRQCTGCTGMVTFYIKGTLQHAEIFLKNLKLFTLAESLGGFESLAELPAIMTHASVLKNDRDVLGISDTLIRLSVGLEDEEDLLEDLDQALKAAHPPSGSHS
# PROTOCOL: CSE activity (AzMC probe assay), H2S production by recombinant human CSE
# DETAILS: EC50 calculated by the four-parameter logistic model
PARAMETER: pEC50
Convention used: pEC50 is expressed as -log10 of the molar concentration.

Solved cases below.
MOLECULE	pEC50
N#Cc1cccc(C(=O)Nc2cnn(CC3CCCO3)c2)c1 (stereo not shown)	7.40
CCn1cnc2c(Nc3cnn(CCOC)c3)ncnc21	7.41
Cn1cc(Nc2ncccn2)cn1	7.41

Entry `CCCn1cc(Nc2ncnc3c2ncn3CC)cn1` ; pEC50 = 7.71

Entry `CCn1cnc2c(Nc3cnn(CC4CCCCC4)c3)ncnc21` ; pEC50 = 7.50

Entry Cn1ncc2c(Nc3cnn(CC4CCCO4)c3)ncnc21 (stereo not shown) ; pEC50 = 7.16

Entry CCn1cnc2c(Nc3cnn(CC4CCCO4)c3)ncnc21 (stereo not shown) ; pEC50 = 7.38

Entry c1cc(Nc2cnn(CC3CCCO3)c2)ncn1 (stereo not shown) ; pEC50 = 7.68

Entry c1cnc(Nc2cnn(CC3CCCO3)c2)nc1 (stereo not shown) ; pEC50 = 7.45

Entry `CCn1cnc2c(Nc3cnn(C)c3)ncnc21` ; pEC50 = 7.59
